Target: COX-1 (Sus scrofa)
Construct: A platelet suspension obtained from pig's blood is preincubated with the test substance; endogenous in cells; host or cells: platelets from pig's blood
Experiment: In-vitro test for COX-1 inhibition: fluorimetric quantification of malonaldehyde (MDA) in A23187-activated pig platelet suspension
Type: cell-based
Conditions: Table 13, urea derivatives; pig platelets; read-out: MDA IC50
recordedEndpoint: IC50 (nM)

P. CCN(CC)C(=O)NCCSc1nc(-c2ccc(OC)cc2)c(-c2ccc(OC)cc2)[nH]1 [Compound T58]
Q. COc1ccc(-c2nc(SCCNC(=O)N(C)C)[nH]c2-c2ccc(OC)cc2)cc1 [Compound T57]
Please indicate which has the smaller reported IC50: P , or Q . # answer = label of selected item
P

---

Biological target: COX-1 (Sus scrofa, UniProt A0A287ANF9)
Construct: A platelet suspension obtained from pig's blood is preincubated with the test substance; endogenous in cells; host or cells: platelets from pig's blood
Sequence (A0A287ANF9 25-600): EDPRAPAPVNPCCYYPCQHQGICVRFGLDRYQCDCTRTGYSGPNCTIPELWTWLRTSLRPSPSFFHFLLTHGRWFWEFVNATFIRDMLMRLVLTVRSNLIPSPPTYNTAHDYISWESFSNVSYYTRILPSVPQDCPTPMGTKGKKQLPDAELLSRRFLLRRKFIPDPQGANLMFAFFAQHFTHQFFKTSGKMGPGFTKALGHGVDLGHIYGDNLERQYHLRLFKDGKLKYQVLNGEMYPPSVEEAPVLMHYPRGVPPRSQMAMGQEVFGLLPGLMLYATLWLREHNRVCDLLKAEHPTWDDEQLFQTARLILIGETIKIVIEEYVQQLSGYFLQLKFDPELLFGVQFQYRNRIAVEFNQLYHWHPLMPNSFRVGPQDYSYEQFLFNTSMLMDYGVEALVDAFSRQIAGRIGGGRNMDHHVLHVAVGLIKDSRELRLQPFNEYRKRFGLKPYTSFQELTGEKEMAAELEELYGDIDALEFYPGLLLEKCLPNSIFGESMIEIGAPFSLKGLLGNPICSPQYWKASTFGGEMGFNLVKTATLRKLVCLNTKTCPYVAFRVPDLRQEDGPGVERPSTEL
Test: In-vitro test for COX-1 inhibition: fluorimetric quantification of malonaldehyde (MDA) in A23187-activated pig platelet suspension
Type: cell-based
Conditions: Table 6, N1-acetic acid derivatives; pig platelets; read-out: MDA IC50
pIC50: −log10 of the molar value.
recordedEndpoint: pIC50

>>> val("COc1ccc(-c2nc(SCc3ccncc3)n(CC(=O)O)c2-c2ccc(OC)cc2)cc1 [Compound T77]")
6.14
>>> val("COc1ccc(-c2c(-c3ccc(Cl)cc3)nc(SCc3ccccn3)n2CC(=O)O)cc1 [Compound T109]")
6.31

---

Reported IC50 by item:
Target: COX-1 (Sus scrofa)
Construct: A platelet suspension obtained from pig's blood is preincubated with the test substance; endogenous in cells; host or cells: platelets from pig's blood
Assay: In-vitro test for COX-1 inhibition: fluorimetric quantification of malonaldehyde (MDA) in A23187-activated pig platelet suspension
Type: cell-based
Settings: tables 1 to 17; read-out: IC50 values (inhibition of cyclooxygenase-1)

Below, each entry is followed by its recorded IC50 result.
>>> val("CCOC(=O)CS(=O)(=O)c1nc(-c2ccc(OC)cc2)c(-c2ccc(OC)cc2)[nH]1")
"~1 nM"
>>> val("COc1ccc(-c2nc(SCc3cccnc3)[nH]c2-c2ccc(OC)cc2)cc1")
"~1 nM"
>>> val("COc1ccc(-c2nc(SCCNC(=O)C(C)C)[nH]c2-c2ccc(OC)cc2)cc1")
"~1 nM"
>>> val("COc1ccc(-c2nc(SCc3ccncc3)[nH]c2-c2ccc(OC)cc2)cc1")
"~1 nM"
>>> val("COc1ccc(-c2nc(SCC(=O)c3ccccc3)[nH]c2-c2ccc(OC)cc2)cc1")
"~1 nM"

So what's the measured IC50 for this one? CCN(CC)C(=O)Sc1nc(-c2ccc(OC)cc2)c(-c2ccc(OC)cc2)[nH]1
~1 nM

---

Molecular target: COX-1 (Sus scrofa)
Construct: A platelet suspension obtained from pig's blood is preincubated with the test substance; endogenous in cells; host or cells: platelets from pig's blood
Test: In-vitro test for COX-1 inhibition: fluorimetric quantification of malonaldehyde (MDA) in A23187-activated pig platelet suspension
Format: cell-based
Conditions: Table 9, alkylamides; pig platelets; read-out: MDA IC50
pIC50: −log10 of the molar value.
recordedEndpoint: pIC50

>>> val("COc1ccc(-c2nc(SCCNC(=O)Cc3ccccc3)[nH]c2-c2ccc(OC)cc2)cc1 [Compound T59]")
7.27

A. COc1ccc(-c2nc(SCCNC(=O)CCc3ccccc3)[nH]c2-c2ccc(OC)cc2)cc1 [Compound T60]
B. CCC(=O)NCCSc1nc(-c2ccc(OC)cc2)c(-c2ccc(OC)cc2)[nH]1 [Compound T50]
C. COc1ccc(-c2nc(SCCNC(=O)C(C)C)[nH]c2-c2ccc(OC)cc2)cc1 [Compound T51]
Which order do these items take when sorted by rising pIC50? List them. # output: labels, in the requested order
A, B, C
(A: 6.82, B: 7.33, C: 8.06)
